Values were extracted from patent US20250136687A1.

# assayed_target: T1, recombinant human CD3ε-ECD His protein (human, UniProt P07766 23-126)
# T1 construct: extracellular domain; also called human CD3ε-His; CD3ε antigen protein; not shown: His tag
# T1 sequence (P07766 23-126): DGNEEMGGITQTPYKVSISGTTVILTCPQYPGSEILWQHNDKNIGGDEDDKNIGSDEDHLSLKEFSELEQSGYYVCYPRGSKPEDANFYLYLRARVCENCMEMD
# protocol_description: SPR, antibody captured on Protein A chip
measured_quantity: koff (s⁻¹)
Entry rule: numbers only, all in s⁻¹.

See these solved cases before continuing.
binder	koff [s⁻¹]
1-22.6-1-H2a-L2a humanized antibody (antibody, human IgG1, kappa, V domains shown, also called 1-22.6-H2a-L2a) VH: EVQLVQSGSELKKPGASVKVSCKTSGYTFTSYGMSWVRQAPGQGLEWMGWINTYSGVPTYAQDFKGRFVFSLDTSVSTAYLQISSLKAEDTAVYYCARLKNNPFVWGQGTTVTVSS VL: DIVMTQSPDSLAVSLGERATINCRSSQLILHSSGNTYLEWYQQKPGQSPKLLIYKVSNRFSGVPDRFSGSGSGTDFTLTISSLQAEDVAVYYCFQGSHFPWTFGGGTKVEIKR	0.000305
5-7.13-H1a-L2 humanized antibody (antibody, human IgG1, kappa, V domains shown) VH: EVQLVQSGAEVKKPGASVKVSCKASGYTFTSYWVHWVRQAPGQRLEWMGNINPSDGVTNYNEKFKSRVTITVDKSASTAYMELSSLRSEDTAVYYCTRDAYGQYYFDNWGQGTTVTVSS VL: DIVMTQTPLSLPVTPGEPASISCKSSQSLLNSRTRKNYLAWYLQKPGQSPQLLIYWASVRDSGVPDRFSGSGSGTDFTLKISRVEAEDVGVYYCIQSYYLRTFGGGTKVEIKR	0.000214

Proceeding to the next binder to report its koff.
Tell me measured koff for 7-35.6-H2-L3 humanized antibody (antibody, human IgG1, lambda, V domains shown) VH: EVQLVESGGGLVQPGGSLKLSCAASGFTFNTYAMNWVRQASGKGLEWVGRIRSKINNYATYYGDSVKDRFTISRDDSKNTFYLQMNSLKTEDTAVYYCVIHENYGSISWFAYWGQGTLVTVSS VL: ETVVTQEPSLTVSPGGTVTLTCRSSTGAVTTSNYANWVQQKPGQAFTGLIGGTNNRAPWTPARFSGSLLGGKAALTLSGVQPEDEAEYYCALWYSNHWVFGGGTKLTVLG please.
0.000369
